Residues, ends and D or L forms follow the SMILES beside them. *: point of attachment. Boc = CC(C)(C)OC(=O)*
# Lookup of reported melting point keyed by entry

Examples with answers:
• CC1Cc2cc3c(cc2C(c2ccc([N+](=O)[O-])cc2)=NN1C(=O)CCl)OCO3 (stereo not drawn) = 158 to 160 °C
• COc1cc(C=C2C(=O)CCc3c2ccc(OC)c3OC)c([N+](=O)[O-])cc1OC = 70 to 72 °C
• CC(NC(=O)C(Cc1ccc(O)cc1)NC(=O)OC(C)(C)C)C(=O)NCC(=O)O (stereo not drawn) (Boc-Tyr-Ala-Gly-OH; configuration not given here) = 194 to 197 °C
• CC(C)(C)NC(=O)[C@@H]1C[C@H](F)CN1C(=O)[C@@H](O)[C@H](Cc1ccccc1)NC(=O)[C@H](CC(N)=O)NC(=O)OCc1ccccc1 = 95 to 100 °C
• CS(=O)(=O)c1ccc(-c2cnn(Cc3ccsc3)c(=O)c2-c2ccc(F)cc2)cc1 = 169 to 172 °C
• CC(=O)NC[C@H]1CN(c2ccc(N3CCC4(CC3)COCO4)c(F)c2)C(=O)O1 = 142 to 144 °C
• Clc1ccc2nc(CN3CCN(c4ncccn4)CC3)cn2c1 = 114 to 115 °C

In the following, a different molecule is considered.
QUERY: Any idea what its melting point is? The molecule is `N#CCOc1cccc2[nH]c3ccccc3c12`
RESULT: 120 °C

# credit: a melting point compilation (Tetko et al.; mined from patent text by program, amines drawn as free bases though some values may be those of a salt)
